# key: entry, value: EC50
TESTED TARGET: T1, full-length beta-Catenin (Uniprot ID P35222) (Homo sapiens (Human), UniProt P35222 2-781)
T1 construct: also called B-Catenin; bCat
T1 sequence: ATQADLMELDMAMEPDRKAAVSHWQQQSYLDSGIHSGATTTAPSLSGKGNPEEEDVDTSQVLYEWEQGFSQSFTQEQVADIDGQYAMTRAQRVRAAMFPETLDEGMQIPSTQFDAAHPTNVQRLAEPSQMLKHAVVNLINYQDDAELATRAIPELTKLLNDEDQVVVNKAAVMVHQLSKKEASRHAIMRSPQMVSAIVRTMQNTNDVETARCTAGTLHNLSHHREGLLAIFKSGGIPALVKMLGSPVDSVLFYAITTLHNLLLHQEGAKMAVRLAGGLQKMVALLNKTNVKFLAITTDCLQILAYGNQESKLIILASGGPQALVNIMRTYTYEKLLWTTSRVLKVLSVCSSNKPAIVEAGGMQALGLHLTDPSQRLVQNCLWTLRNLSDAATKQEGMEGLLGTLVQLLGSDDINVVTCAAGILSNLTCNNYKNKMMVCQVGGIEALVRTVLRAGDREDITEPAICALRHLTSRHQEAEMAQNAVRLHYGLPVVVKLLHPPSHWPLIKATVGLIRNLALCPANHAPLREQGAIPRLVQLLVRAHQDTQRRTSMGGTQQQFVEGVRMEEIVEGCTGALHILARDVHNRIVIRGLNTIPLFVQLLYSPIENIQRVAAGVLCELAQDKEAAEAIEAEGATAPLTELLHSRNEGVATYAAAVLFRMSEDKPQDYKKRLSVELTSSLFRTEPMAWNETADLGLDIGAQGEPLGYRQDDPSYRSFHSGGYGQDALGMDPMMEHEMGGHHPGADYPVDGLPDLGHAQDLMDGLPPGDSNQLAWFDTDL
TEST PROTOCOL: Alphascreen competition; biotin-TCF4(10-53) probe with full-length beta-catenin
Starred links: 1 amine or outer side, 2 acyl side, 3 side chain; linkers in the order of their positions; H or OH if unused. Positions of bridges follow the written chain, without caps; N, C: chain ends. Non-standard residues stand in square brackets, D forms with d. Primed or numbered codes have the meaning given here. B5(4) = 2,2-bis(4-pentenyl)glycine = 2-amino-2-(pent-4-en-1-yl)hept-6-enoic acid (stitching residue), C=CCCCC(CCCC=C)(N[*:1])C(=O)[*:2]; PyrS″ = (S)-1-((allyloxy)carbonyl)-3-aminopyrrolidine-3-carboxylic acid (stapling residue), C=CCOC(=O)N1CC[C@@](N[*:1])(C(=O)[*:2])C1; SeN = (S)-5-(((allyloxy)carbonyl)(methyl)amino)-2-amino-2-methylpentanoic acid, C=CCOC(=O)N(C)CCC[C@](C)(N[*:1])C(=O)[*:2]; PyrS = (S)-1-((allyloxy)carbonyl)-3-aminopyrrolidine-3-carboxylic acid, C=CCOC(=O)N1CC[C@@](N[*:1])(C(=O)[*:2])C1; Phe(3-CONH2) = NC(=O)c1cccc(C[C@H](N)C(=O)O)c1; Phe(4-CONH2) = NC(=O)c1ccc(C[C@H](N)C(=O)O)cc1; Ala(cPent) = N[C@@H](CC1CCCC1)C(=O)O; αAllylPro = C=CC[C@@]1(C(=O)O)CCCN1; R8 = C=CCCCCCC[C@@](C)(N)C(=O)O; S8 = C=CCCCCCC[C@](C)(N)C(=O)O
The reply should be a number in µM, with the unit left off.

Observe how each entry below is paired with its result.
BINDER	RESULT TYPE	READOUT VALUE
Ac-[αAllylPro]DA[B5(4)]DEAAFV[S8]FWQ-NH2 (staple 1-4, 4-11, Stitched (two-staple) peptide composition) [I-123]	EC50	0.444
Ac-[αAllylPro]DA[B5(4)]DEAAFV[SeN]FWQ-NH2 (staple 1-4, 4-11, Stitched (two-staple) peptide composition) [I-130]	EC50	0.797
Ac-FDA[R8]DDAA[Ala(cPent)]V[PyrS″]FWQ-NH2 (staple 4-11, Stapled peptide composition; same description as I-96, separate earlier-eluting HPLC peak (staple isomer)) [I-95]	EC50	8.66
Ac-FDA[R8]DDAAFV[PyrS][Ala(cPent)]WQ-NH2 (staple 4-11, Stapled peptide composition; same description as I-93, separate later-eluting HPLC peak (staple isomer)) [I-94]	EC50	7.01
Ac-FDA[R8]DDAA[Phe(4-CONH2)]V[PyrS″]FWQ-NH2 (staple 4-11, Stapled peptide composition; same description as I-92, separate earlier-eluting HPLC peak (staple isomer)) [I-91]	EC50	4.72

// next entry
Memo: Ac-FDA[R8]DDAA[Phe(3-CONH2)]V[PyrS″]FWQ-NH2 (staple 4-11; not fully specified; printed as Ac-Phe-Asp-Ala-R8-Asp-Asp-Ala-Ala-3CBMF-Val-PyrS-Phe-Trp-Gln-NH2, Stapled peptide composition) [I-109] , reported EC50: 8.82
